- TESTED ON: AXL (human catalytic domain) (Homo sapiens)
- Construct: purchased Upstate Ltd. 14-512
- Sequence (P30530 473-894): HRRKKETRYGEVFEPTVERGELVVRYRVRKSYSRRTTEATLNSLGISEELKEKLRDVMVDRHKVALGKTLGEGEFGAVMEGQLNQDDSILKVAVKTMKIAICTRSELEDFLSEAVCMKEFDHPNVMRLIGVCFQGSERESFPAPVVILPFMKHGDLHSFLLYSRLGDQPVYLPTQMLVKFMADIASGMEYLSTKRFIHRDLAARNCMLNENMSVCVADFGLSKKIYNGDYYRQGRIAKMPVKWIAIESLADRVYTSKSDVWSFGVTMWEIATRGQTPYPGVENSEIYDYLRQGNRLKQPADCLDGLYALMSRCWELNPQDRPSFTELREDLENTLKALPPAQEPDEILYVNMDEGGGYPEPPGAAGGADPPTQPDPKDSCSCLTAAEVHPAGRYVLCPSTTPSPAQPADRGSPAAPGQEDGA
- TEST SUMMARY: AXL (human catalytic domain) Enzyme Activity Assay (IMAP fluorescence polarisation)
- Assay type: biochemical
- CONDITIONS: first data set; recombinant AXL isoform 1 aa473-894, 150 μM ATP
- Description: Biological Methods AXL (human catalytic domain) Enzyme Activity Assay Reagents Kinase Assay Reaction Buffer: This consisted of 20 mM HEPES pH 7.0, 10 mM MgCl2, 1 mM DTT, […], 0.01% Triton X100 (v/v), and 0.01% BSA (w/v). All buffer components were purchased from Sigma-Aldrich at reagent grade or higher. […] ATP: Supplied by Sigma (product code A-7699). […] Final ATP concentration in the assay was 150 μM; this concentration represents the KM.ATP for this enzyme calculated in this assay. […]
Hi there, I'd appreciate the recorded IC50 for every entry that follows.

Worked cases, answers included:
COc1cccc(-c2cccc3nc(NC(=O)C4CC4)nn23)c1 ... 1000 to 10000 nM
NC(=O)c1cccc(-c2cccc3nc(NC(=O)C4CC4)nn23)c1 ... 1000 to 10000 nM
Cc1cc(-c2cccc3nc(NC(=O)C4CC4)nn23)cnc1F ... 1000 to 10000 nM
Cc1ccc(-c2cccc3nc(NC(=O)C4CC4)nn23)cn1 ... 1000 to 10000 nM

For each of the compounds below, state IC50.
1. O=C(Nc1nc2cccc(-c3ccccc3)n2n1)C1CC1
2. COc1ccc(-c2nccc3nc(Nc4ccc(C(=O)NCCN(C)C)cc4)nn23)cc1
3. COc1ccc(-c2cccc3nc(Nc4ccc(OCCN5CCCC5)cc4)nn23)cc1

< 1000 nM
< 1000 nM
< 1000 nM

# credit: patent US8431596B2
